system: C. sporogenes CBC5; experiment: Deferred antagonism assay; type: cell-based, Clostridium sporogenes; set-up: key: + = Enhanced bioactivity relative to control; − = Bioactivity equal to or less than control; NA = no activity evident; settings: producing strain
Ends that are not written are not given here.
measured.endpoint: Bioactivity relative to control

INSERT INTO results (substance, readout_value) VALUES
  ('NisinA M21A (ITSISLCTPGCKTGALMGCNAKTATCHCSIHVSK; not fully specified; also: lantibiotic nisin: dehydrated residues and thioether rings not placed; UniProt P13068 24-57, looked up, variant M21A) [nisin A derivative, hinge substitution M21A]', '−');

====

Test system: Listeria monocytogenes 33116
Experiment: Deferred antagonism assay
Format: cell-based
Conditions: nisin strain; L. monocytogenes 33116
Experimental: Deferred antagonism assays were performed by replicating strains on GM17 or GM17 x-gal agar plates and allowing them to grow overnight before overlaying with either GM17/BHI/TS/MH agar (0.75% w/v agar) seeded with the appropriate indicator strain. […] Bioactivity was expressed as arbitrary units/ml (AU/ml) and calculated as the reciprocal of the highest dilution that gave a definite zone multiplied by the conversion factor (i.e. 20 when 50 μl was used) (Ryan et al., 1996).
Ends that are not written are not given here.
measured.endpoint: Activity score (zone)

INSERT INTO assay_data (substance, measurement_target, readout_value) VALUES
  ('NisinA M21I (ITSISLCTPGCKTGALMGCNIKTATCHCSIHVSK; not fully specified; also: lantibiotic: lanthionine rings and dehydro residues not placed; UniProt P13068 24-57, looked up, variant M21I) [nisin A derivative, hinge substitution M21I]', 'Listeria monocytogenes 33116', '++ (++, 6-10 mm zone)'),
  ('NisinA M21G (ITSISLCTPGCKTGALMGCNGKTATCHCSIHVSK; not fully specified; also: lantibiotic: lanthionine rings and dehydro residues not placed; UniProt P13068 24-57, looked up, variant M21G) [nisin A derivative, hinge substitution M21G]', 'Listeria monocytogenes 33116', '+ (+, 1-5 mm zone)'),
  ('NisinA K22A (ITSISLCTPGCKTGALMGCNMATATCHCSIHVSK; not fully specified; also: lantibiotic: lanthionine rings and dehydro residues not placed; UniProt P13068 24-57, looked up, variant K22A) [nisin A derivative, hinge substitution K22A]', 'Listeria monocytogenes 33116', '+ (+, 1-5 mm zone)'),
  ('NisinA M21S (ITSISLCTPGCKTGALMGCNSKTATCHCSIHVSK; not fully specified; also: lantibiotic nisin: dehydrated residues and thioether rings not placed; UniProt P13068 24-57, looked up, variant M21S) [nisin A derivative, hinge substitution M21S]', 'Listeria monocytogenes 33116', '++ (++, 6-10 mm zone)');

====

tested on: Listeria monocytogenes F2365; assay: Deferred antagonism assay; type: cell-based; conditions: nisin strain; L. monocytogenes F2365
Ends that are not written are not given here.
measured.endpoint: Activity score (zone)

INSERT INTO results (substance, measured_endpoint, readout_value) VALUES
  ('NisinA K22A (ITSISLCTPGCKTGALMGCNMATATCHCSIHVSK; not fully specified; also: lantibiotic: lanthionine rings and dehydro residues not placed; UniProt P13068 24-57, looked up, variant K22A) [nisin A derivative, hinge substitution K22A]', 'Activity score (zone)', '+ (+, 1-5 mm zone)'),
  ('NisinA M21I (ITSISLCTPGCKTGALMGCNIKTATCHCSIHVSK; not fully specified; also: lantibiotic: lanthionine rings and dehydro residues not placed; UniProt P13068 24-57, looked up, variant M21I) [nisin A derivative, hinge substitution M21I]', 'Activity score (zone)', '+ (+, 1-5 mm zone)');

====

tested on: L. monocytogenes CBC3; assay: Deferred antagonism assay; type: cell-based, Listeria monocytogenes; design: key: + = Enhanced bioactivity relative to control; − = Bioactivity equal to or less than control; NA = no activity evident; details: producing strain; L. mono CBC3
Ends that are not written are not given here.
measured.endpoint: Bioactivity relative to control

INSERT INTO measurements (substance, measured_endpoint, readout_value) VALUES
  ('NisinA K22Q (ITSISLCTPGCKTGALMGCNMQTATCHCSIHVSK; not fully specified; also: lantibiotic nisin: dehydrated residues and thioether rings not placed; UniProt P13068 24-57, looked up, variant K22Q) [nisin A derivative, hinge substitution K22Q]', 'Bioactivity relative to control', '−'),
  ('NisinA K22G (ITSISLCTPGCKTGALMGCNMGTATCHCSIHVSK; cysteine pairing not given here; also: lantibiotic nisin-A; UniProt P13068 24-57, looked up, variant K22G) [nisin A derivative, hinge substitution K22G]', 'Bioactivity relative to control', '−'),
  ('M21C: nisin A derivative, hinge substitution M21C (ITSISLCTPGCKTGALMGCNCKTATCHCSIHVSK; cysteine pairing not given here; also: lantibiotic nisin-A; UniProt P13068 24-57, looked up, variant M21C)', 'Bioactivity relative to control', '−'),
  ('NisinA M21Y (ITSISLCTPGCKTGALMGCNYKTATCHCSIHVSK; not fully specified; also: lantibiotic: lanthionine rings and dehydro residues not placed; UniProt P13068 24-57, looked up, variant M21Y) [nisin A derivative, hinge substitution M21Y]', 'Bioactivity relative to control', '+');

====

tested on: Listeria monocytogenes 33028; experiment: Deferred antagonism assay; format: cell-based; conditions: nisin strain; L. monocytogenes 33028
Ends that are not written are not given here.
measured.endpoint: Activity score (zone)

INSERT INTO assay_data (substance, readout_value) VALUES
  ('NisinA K22A (ITSISLCTPGCKTGALMGCNMATATCHCSIHVSK; not fully specified; also: lantibiotic: lanthionine rings and dehydro residues not placed; UniProt P13068 24-57, looked up, variant K22A) [nisin A derivative, hinge substitution K22A]', '+ (+, 1-5 mm zone)'),
  ('NisinA M21I (ITSISLCTPGCKTGALMGCNIKTATCHCSIHVSK; not fully specified; also: lantibiotic: lanthionine rings and dehydro residues not placed; UniProt P13068 24-57, looked up, variant M21I) [nisin A derivative, hinge substitution M21I]', '+ (+, 1-5 mm zone)');

====

system: L. monocytogenes CBC2; assay: Deferred antagonism assay; type: cell-based, Listeria monocytogenes; parameters: key: + = Enhanced bioactivity relative to control; − = Bioactivity equal to or less than control; NA = no activity evident; details: producing strain; L. mono CBC2
Ends that are not written are not given here.
measured.endpoint: Bioactivity relative to control

INSERT INTO measurements (substance, readout_value) VALUES
  ('NisinA K22A (ITSISLCTPGCKTGALMGCNMATATCHCSIHVSK; not fully specified; also: lantibiotic: lanthionine rings and dehydro residues not placed; UniProt P13068 24-57, looked up, variant K22A) [nisin A derivative, hinge substitution K22A]', '+'),
  ('NisinA M21A (ITSISLCTPGCKTGALMGCNAKTATCHCSIHVSK; not fully specified; also: lantibiotic nisin: dehydrated residues and thioether rings not placed; UniProt P13068 24-57, looked up, variant M21A) [nisin A derivative, hinge substitution M21A]', '−');

====

test system: L. monocytogenes CBC2; assay: Deferred antagonism assay; type: cell-based, Listeria monocytogenes; set-up: key: + = Enhanced bioactivity relative to control; − = Bioactivity equal to or less than control; NA = no activity evident; settings: producing strain; L. mono CBC2
Ends that are not written are not given here.
measured.endpoint: Bioactivity relative to control

INSERT INTO results (substance, readout_value) VALUES
  ('M21P: nisin A derivative, hinge substitution M21P (ITSISLCTPGCKTGALMGCNPKTATCHCSIHVSK; cysteine pairing not given here; also: lantibiotic nisin-A; UniProt P13068 24-57, looked up, variant M21P)', '−'),
  ('NisinA K22Q (ITSISLCTPGCKTGALMGCNMQTATCHCSIHVSK; not fully specified; also: lantibiotic nisin: dehydrated residues and thioether rings not placed; UniProt P13068 24-57, looked up, variant K22Q) [nisin A derivative, hinge substitution K22Q]', '−'),
  ('K22F: nisin A derivative, hinge substitution K22F (ITSISLCTPGCKTGALMGCNMFTATCHCSIHVSK; cysteine pairing not given here; also: lantibiotic nisin-A; UniProt P13068 24-57, looked up, variant K22F)', '−');

====

test system: L. monocytogenes CBC2; assay: Deferred antagonism assay; assay type: cell-based, Listeria monocytogenes; design: key: + = Enhanced bioactivity relative to control; − = Bioactivity equal to or less than control; NA = no activity evident; conditions: producing strain; L. mono CBC2
Ends that are not written are not given here.
measured.endpoint: Bioactivity relative to control

INSERT INTO assay_data (substance, readout_value) VALUES
  ('NisinA N20T (ITSISLCTPGCKTGALMGCTMKTATCHCSIHVSK; not fully specified; also: lantibiotic nisin: dehydrated residues and thioether rings not placed; UniProt P13068 24-57, looked up, variant N20T) [nisin A derivative, hinge substitution N20T]', '−'),
  ('NisinA N20F (ITSISLCTPGCKTGALMGCFMKTATCHCSIHVSK; not fully specified; also: lantibiotic nisin: dehydrated residues and thioether rings not placed; UniProt P13068 24-57, looked up, variant N20F) [nisin A derivative, hinge substitution N20F]', '−'),
  ('N20W: nisin A derivative, hinge substitution N20W (ITSISLCTPGCKTGALMGCWMKTATCHCSIHVSK; cysteine pairing not given here; also: lantibiotic nisin-A; UniProt P13068 24-57, looked up, variant N20W)', '−'),
  ('N20I: nisin A derivative, hinge substitution N20I (ITSISLCTPGCKTGALMGCIMKTATCHCSIHVSK; cysteine pairing not given here; also: lantibiotic nisin-A; UniProt P13068 24-57, looked up, variant N20I)', '−'),
  ('NisinA M21I (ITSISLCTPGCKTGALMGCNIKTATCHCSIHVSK; not fully specified; also: lantibiotic: lanthionine rings and dehydro residues not placed; UniProt P13068 24-57, looked up, variant M21I) [nisin A derivative, hinge substitution M21I]', '+'),
  ('NisinA M21S (ITSISLCTPGCKTGALMGCNSKTATCHCSIHVSK; not fully specified; also: lantibiotic nisin: dehydrated residues and thioether rings not placed; UniProt P13068 24-57, looked up, variant M21S) [nisin A derivative, hinge substitution M21S]', '+'),
  ('M21E: nisin A derivative, hinge substitution M21E (ITSISLCTPGCKTGALMGCNEKTATCHCSIHVSK; cysteine pairing not given here; also: lantibiotic nisin-A; UniProt P13068 24-57, looked up, variant M21E)', '−'),
  ('NisinA M21G (ITSISLCTPGCKTGALMGCNGKTATCHCSIHVSK; not fully specified; also: lantibiotic: lanthionine rings and dehydro residues not placed; UniProt P13068 24-57, looked up, variant M21G) [nisin A derivative, hinge substitution M21G]', '+');
